B1: GMCL1 (parent)
chain: RPDTGDDAAGHGFCYCAGSHKRKR

Variants of: B1
METHOD_SUMMARY: protein stability index of a GFP-peptide fusion (GPS, HEK-293T) (PSI 1-6); higher = more stable;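 note: lentivirally expressed fusions sorted by FACS into six bins by GFP to DsRed ratio, PSI derived from sequencing read proportions per bin multiplied by bin number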
ASSAY_CONTEXT: c terminus: a fixed tail appended
PROPERTY_LABEL: protein stability index

• RPDTGDDAAGHGFCYEAGSHKRKR [C16E] = 5.33
• RPDTGDDAAVHGFCYCAGSHKRKR [G10V] = 3.49
• KPDTGDDAAGHGFCYCAGSHKRKR [R1K] = 2.99
• RPDTGDDAAGHGFCYCWGSHKRKR [A17W] = 3.01
• RPDTGDDAAGHGFCYCAGSHKRAR [K23A] = 2.2
• RPDTGDDAAGHGFVYCAGSHKRKR [C14V] = 4.3
• RPDTGDDAAGHGFCYKAGSHKRKR [C16K] = 4.81
• RPDTGDDAAGHGFSYCAGSHKRKR [C14S] = 5.02
• RPDTGDDAAGHGFCYCAGYHKRKR [S19Y] = 2.53
• RPDTGDPAAGHGFCYCAGSHKRKR [D7P] = 3.28
• RVDTGDDAAGHGFCYCAGSHKRKR [P2V] = 2.89
• RPYTGDDAAGHGFCYCAGSHKRKR [D3Y] = 3.15
• RPDTGDDAAGHGFCYCAGEHKRKR [S19E] = 2.98
• RPDTGDDAAGHGFCYCHGSHKRKR [A17H] = 2.29
• RPDTGDDAAGHGFCYSAGSHKRKR [C16S] = 4.97
• RPDTGDDAAGHGFCYCAGDHKRKR [S19D] = 2.86
• RPDTGDDAAGHMFCYCAGSHKRKR [G12M] = 2.79
• RCDTGDDAAGHGFCYCAGSHKRKR [P2C] = 3.23
• RPDTGDDAAGHGFCYCAGKHKRKR [S19K] = 3.78
• RPDQGDDAAGHGFCYCAGSHKRKR [T4Q] = 3.47
• RPDTGDDAAGHGFCYCAASHKRKR [G18A] = 3.24
• RPDTGDDAAGHGFCYCAHSHKRKR [G18H] = 2.53
• RPDTGDDAAGHGMCYCAGSHKRKR [F13M] = 3.25
• RPDTGDDAAGHGFCTCAGSHKRKR [Y15T] = 2.51
• RPDTGDDAAGSGFCYCAGSHKRKR [H11S] = 3.24
• RQDTGDDAAGHGFCYCAGSHKRKR [P2Q] = 2.91
• TPDTGDDAAGHGFCYCAGSHKRKR [R1T] = 2.97
• RPDTGDDAAGHGFCYCAGSHRRKR [K21R] = 2.67
• RPDTGGDAAGHGFCYCAGSHKRKR [D6G] = 3.16
• RPDTGDDAAGHGYCYCAGSHKRKR [F13Y] = 2.65
• RPDTGDDAAGHGFCYQAGSHKRKR [C16Q] = 4.92
• RPDTGDDAAKHGFCYCAGSHKRKR [G10K] = 3.22
• RPDTGDDAAGHGFCYCAGSHKRNR [K23N] = 3.03
• RPDTGFDAAGHGFCYCAGSHKRKR [D6F] = 2.73
• RPDTGDDAAGHGFCYCAGSHMRKR [K21M] = 2.65
• RPDTGDDAAGHGFCYCAGSHKIKR [R22I] = 3
• RPDTGDDAAGHGFCYCAGSHKRVR [K23V] = 2.33
• RPDTGDDAWGHGFCYCAGSHKRKR [A9W] = 2.96
• RPDTGDDAAGIGFCYCAGSHKRKR [H11I] = 3.26
• RPKTGDDAAGHGFCYCAGSHKRKR [D3K] = 3.62
• RPDTGDCAAGHGFCYCAGSHKRKR [D7C] = 3.02
• RPDTGDDAAGHGFCYCAGSGKRKR [H20G] = 3.41
• RPDTGDDAAGHGFCYCAGSHKRTR [K23T] = 2.18
• CPDTGDDAAGHGFCYCAGSHKRKR [R1C] = 2.99
• RPDTGDDAAGFGFCYCAGSHKRKR [H11F] = 3.27
• RPDTGDDAAGHGFCYCAGSHKRSR [K23S] = 3.12
• RPDSGDDAAGHGFCYCAGSHKRKR [T4S] = 3.06
• RPDTIDDAAGHGFCYCAGSHKRKR [G5I] = 3.28
• RPDTGDDAAGHGFCYCPGSHKRKR [A17P] = 3.7
• RPDTGDDAAGHGFCYCYGSHKRKR [A17Y] = 3.25
• RPDTGDDAAGHGFCYCAGSHKRKC [R24C] = 4.32
• RPDTGDDAAGHGFCMCAGSHKRKR [Y15M] = 2.89
• RPDTGDDAAGHGFCYCAGQHKRKR [S19Q] = 3.16
• RPDTGDDAAGHGFCYCAGSHKRCR [K23C] = 3.71
• RPDTGDDAAHHGFCYCAGSHKRKR [G10H] = 3.1
• EPDTGDDAAGHGFCYCAGSHKRKR [R1E] = 2.84
• RPHTGDDAAGHGFCYCAGSHKRKR [D3H] = 3.4
• RPDTGDDAAGHGFCYCAGSHFRKR [K21F] = 2.52
• RPDTGDDAAGHGFCYCDGSHKRKR [A17D] = 3.68
• RPDTGDDAAGHAFCYCAGSHKRKR [G12A] = 2.52
• RPDMGDDAAGHGFCYCAGSHKRKR [T4M] = 2.98
• QPDTGDDAAGHGFCYCAGSHKRKR [R1Q] = 2.98
• RPDTGDDAAGHGFCYCIGSHKRKR [A17I] = 2.97
• RPDTGDDAAGHGFCYYAGSHKRKR [C16Y] = 4.09
• RPDTDDDAAGHGFCYCAGSHKRKR [G5D] = 2.89
• RPDTGDDAAGHGFCYCAGSHKSKR [R22S] = 2.77
• RPDTGDDAANHGFCYCAGSHKRKR [G10N] = 3.71
• RPDTGDDAAGHGFCYCAGSHKRGR [K23G] = 2.9
• RPDTGDDAYGHGFCYCAGSHKRKR [A9Y] = 3.05
• RPDTGDDAAGHGFCYCAGVHKRKR [S19V] = 2.72
• RPDTGDDAAGHPFCYCAGSHKRKR [G12P] = 3.1
